- test.protocol: Blood levels of penciclovir in Pekin ducks after oral dosing with penciclovir or famciclovir
- Assay type: in vivo
- test.conditions: duck, 5 mg/kg, 120 min, oral famciclovir 5 mg/kg, Duck No. 117
measured.attribute: concentration at 2 h (nM)
Answers are plain numbers, in nM.

// `CC(=O)OCC(CCn1cnc2cnc(N)nc21)COC(C)=O` : concentration at 2 h value = 2000

====

- test.protocol: Blood levels of penciclovir in Pekin ducks after oral dosing with penciclovir or famciclovir
- Format: in vivo
- test.conditions: duck, 25 mg/kg, 0-6 hr, oral famciclovir 25 mg/kg, Duck No. 111, read-out: AUC (area under the 0-6 hr. concentration/time curve) of penciclovir in blood
measured.attribute: AUC at 6 h
Quick note: number first, unit second.

// `CC(=O)OCC(CCn1cnc2cnc(N)nc21)COC(C)=O` : AUC at 6 h value = 126 µM·h

Where do the numbers come from? From patent US6136813A.
